tested on: NCI-H23 lung; assay: NCI tumour cell line growth inhibition, 48 h
// reported TGI per item
// units = µM; emit number, no label

Consider the reported TGI for these molecules:
NC(N)=N/N=C\c1c(-c2cccc([N+](=O)[O-])c2)nc2sc(Cl)cn12    5.69
O=c1ccc2[n+]([O-])c3ccc(O)cc3oc-2c1    11.4
COc1cccc(C2c3cc4c(cc3OC(NNc3ccccc3)C2C)OCO4)c1OC (stereo unspecified)    96.9

Now for the molecule whose TGI we want.
For record Nc1cc2ccccc2c(O)c1O the listed TGI is 17.9

----------
// reported TGI per item
test system: OVCAR-3 ovarian; assay: NCI tumour cell line growth inhibition, 48 h

Consider the reported TGI for these compounds:
Clc1ccc(-c2nc(-c3ccccc3)cn3ccnc23)cc1    16.8 µM
Cc1ccc2cc3cccc(C(=O)NCCN(C)C)c3nc2c1    5.67 µM
Cc1cc(-c2ccc(C3C(C#N)=C(N)Oc4c3c(=O)oc3ccccc43)cc2)cnc1F (stereo unspecified)    > 100 µM
CC12C=C[C@]3(CC[C@@H]4[C@@](C)(CO)CCC[C@]4(C)C3CC1)C2 (stereo partly specified)    33.2 µM

For record C[C@@]1(O)C2C3CC4C5C3C1[C@](O)(C42)[C@H]5Br (stereo partly specified) the listed TGI is > 100 µM

For record COc1cccc(C=O)c1[O-].COc1cccc(C=O)c1[O-].[Cu+2] the listed TGI is 21 µM

----------
test system: UACC-62 melanoma; assay: NCI tumour cell line growth inhibition, 48 h
// reported TGI per item
// units = µM; emit number, no label

Consider the reported TGI for these compounds:
[O-][n+]1c2cc(CBr)c(CBr)cc2[n+]([O-])c2c(O)cccc21    3.39
COC(=O)[C@@H](C)C[C@H](Cc1ccccc1)NC(=O)c1nc([C@@H](C[C@H](C(C)C)N(C)C(=O)[C@@H](NC(=O)[C@H]2CCCCN2C)C(C)C)OC(C)=O)sc1C(C)C    32.6
Cc1ccc(S(=O)(=O)/N=C(\NO)Nc2ccc(Cl)c(Cl)c2)cc1    24.1
COc1ccc(-c2cn(-c3cccc(C(=O)/C=C/c4cc(OC)c(OC)c(OC)c4)c3)c(=O)[nH]2)cc1    4.85

Now for the compound whose TGI we want.
For record Oc1ccc(Cl)cc1-c1cc(-c2ccc(Cl)cc2)n[nH]1 the listed TGI is 10.4

----------
system: MDA-MB-435; assay: NCI tumour cell line growth inhibition, 48 h
// reported log10(TGI) per item
Friendly reminder: values = log10 of TGI, unit µM.

Consider the reported log10(TGI) for these molecules:
CC(=O)O[C@H]1[C@@H]2OC(=O)C3(CC3)C2C[C@H]2O[C@]2(C)CC/C=C(\C)CCC[C@@H]1C (stereo not given in full)    1.73
CCC(C)C1=NC(C(=O)N/C=C\c2c[nH]c3cc(Br)c(Br)cc23)(C(C)C)NC1=O (stereo not given)    1.39
COc1ccc(N2C(=O)C3c4[nH]c5c(C)cccc5c4C4CCC(c5ccccc5)CC4C3C2=O)cc1 (stereo not given)    1.54
C=C(C)C12OC3(c4ccccc4)OC1C1C4OC4(CO)C(O)C4(O)C(=O)C(C)=CC4C1(O3)C(C)C2OC(=O)/C=C/C=C/c1ccccc1 (stereo not given)    -0.13

Sample C=C1C(=O)O[C@H]2[C@H]1CC/C(COC(=O)NCc1c[nH]c3ccc(Br)cc13)=C\CC[C@@]1(C)O[C@@H]21 , system: MDA-MB-435. Its log10(TGI) is 0.41

----------
system: SF-268 CNS; test: NCI tumour cell line growth inhibition, 48 h
// reported TGI per item

Consider the reported TGI for these compounds:
N=C(N)c1ccc(-c2ccc(-c3cccs3)o2)cc1    5.17 µM
NC(N)=NS(=O)(=O)c1ccc(NC(=O)c2cccc3c(Nc4ccc(S(=O)(=O)N=C(N)N)cc4)c4ccccc4nc23)cc1    > 100 µM
O=c1ccc2[n+]([O-])c3ccc(O)cc3oc-2c1    > 100 µM
CN(C)C(=S)/N=c1\ss/c(=N\C(=S)N(C)C)n1C1CCCCC1    > 100 µM
N#Cc1c(N)c2c(c(-c3ccccc3)c1-c1ccccc1)C(=O)N(NC(=S)Nc1ccccc1)C2=O    > 100 µM

Sample CCN1CCN(Cc2ccc(NC(=O)c3nc4ccc5[nH]ncc5c4c4c3CCCC4)cc2C(F)(F)F)CC1 , system: SF-268 CNS. Its TGI is 9.2 µM

Sample CC(=O)O[C@H]1C(=O)[C@@]2(C)[C@H]([C@H](OC(=O)C3CCCCC3)[C@]3(O)C[C@H](OC(=O)[C@H](O)[C@@H](NC(=O)OC(C)(C)C)c4ccccc4)C(C)=C1C3(C)C)[C@]1(OC(C)=O)CO[C@@H]1C[C@@H]2O , system: SF-268 CNS. Its TGI is > 12.5 µM

Sample O=C(Nc1ccc(-n2ccc3c(NC(=O)c4ccccc4)ncnc32)cc1)c1ccc(Cl)c(C(F)(F)F)c1 , system: SF-268 CNS. Its TGI is 15.2 µM

----------
// reported TGI per item
tested on: A498 renal; assay: NCI tumour cell line growth inhibition, 48 h

Consider the reported TGI for these compounds:
N#Cc1c(N)c2c(c(-c3ccccc3)c1-c1ccccc1)C(=O)N(NC(=S)Nc1ccccc1)C2=O    > 100 µM
COC(=O)CCC(C)[C@H]1CCC2C3C(C[C@H](OC(C)=O)[C@@]21C)[C@@]1(C)CCC2(C[C@H]1C[C@H]3OC(C)=O)OOC1(CCC(C(C)(C)C)CC1)OO2 (stereo partly drawn)    > 100 µM
COC(=O)C12OCC34C(CC5C(C)=C(O)C(=O)CC5(C)C3C(O)C1O)OC(=O)C(OC(=O)C=C(C)C)C24 (stereo not drawn)    > 500 µM
CC(C)CNC(=O)c1ccc(NC(=O)N(CC(C)C)C(=O)c2ccc(N)c(OCCCN)c2)c(OCCCN=C(N)N)c1    > 62.5 µM
CC(=O)OCC12C(OC(C)=O)C(=O)C3C(OC(C)=O)C14OC3(C)COC(=O)c1cccnc1C(C)C(C)C(=O)OC(C(OC(C)=O)C2OC(C)=O)C4(C)O (stereo not drawn)    > 100 µM
CCc1cccc(C)c1NC(=O)CCc1nnc(SC)o1    > 100 µM
COc1ccc2cc(C(=O)NCCCNC(=O)c3ccc4c(OC)c(OC)ccc4c3)ccc2c1OC    > 100 µM

For record O=C(Nc1ccc(Cl)cc1)/C(=C(/[O-])c1ccc(Br)cc1)[n+]1cccc(-c2ccc(Cl)cc2)n1 the listed TGI is > 100 µM

----------
// reported TGI per item
system: TK-10 renal; experiment: NCI tumour cell line growth inhibition, 48 h

CCOC(=O)c1c(SCCCN2CCCCC2)n(-c2ccccc2)c(=S)n(-c2ccccc2)c1=O    34.8 µM
CCCCCCCCCCCCCCCCCCNc1nc(=O)n(C2CC(O)C(COP(=O)(O)OCC(COP(=O)(O)OC3C(CO)OC(n4ccc(N)nc4=O)C3O)OCCCCCCCCCCCCCCCCCC)O2)cc1F (stereo not given)    > 100 µM
NC(Cc1cnc(I)[nH]1)C(=O)O (stereo not given)    > 100 µM

For record Cc1ccc(/C(=C/C=C(/C#N)C(N)=O)Sc2ncnn2C)cc1 the listed TGI is 29.1 µM

For record CCOP(=O)(OCC)/C(C#N)=C/c1nccn1C the listed TGI is > 100 µM

For record Cc1cc(-c2ccc(C3C(C#N)=C(N)Oc4c3c(=O)oc3ccccc43)cc2)cnc1F (stereo not given) the listed TGI is > 100 µM

----------
tested on: SW-620 colon; assay: NCI tumour cell line growth inhibition, 48 h
Observation Type: TGI (µM)
// units = µM; emit number, no label

CC(=O)O[C@H]1[C@@H]2OC(=O)C3(CC3)C2C[C@H]2O[C@]2(C)CC/C=C(\C)CCC[C@@H]1C (some centres undefined)    55.9
C/C(=C\C(=N\N=C(N)N)c1ccc(Cl)cc1)c1ccc(Cl)cc1    1.73
CCN1CCN(Cc2ccc(NC(=O)c3nc4ccc5[nH]ncc5c4c4c3CCCC4)cc2C(F)(F)F)CC1    1.89

For record CC(=O)OCC1OC(n2c(-c3ccc(Cl)cc3)cc(-c3ccccc3)c(C#N)c2=S)C(OC(C)=O)C(OC(C)=O)C1OC(C)=O (centres undefined) the listed TGI is 14.7

----------
system: UO-31 renal; experiment: NCI tumour cell line growth inhibition, 48 h
// reported GI50 per item

Consider the reported GI50 for these compounds:
CCOC(=O)C#Cc1c(C(=O)OCC)nnn1Cc1ccc(C(F)(F)F)cc1    1800 nM
Cc1ccc(/C(=C/C=C(/C#N)C(N)=O)Sc2ncnn2C)cc1    5530 nM
COC(=O)[C@]12CC[C@@H](C(=O)/C=C/c3cccnc3)[C@@H]1[C@H]1CC[C@@H]3[C@@]4(C)C/C(=C/c5cccnc5)C(=O)C(C)(C)[C@@H]4CC[C@@]3(C)[C@]1(C)CC2    167 nM
c1ccc(-c2nc([P+](c3ccccc3)(c3ccccc3)c3ccccc3)c(N3CCOCC3)o2)cc1    6370 nM
O=C(c1cccs1)c1c(C(F)(F)F)n([O-])c2ccc(Cl)cc2[n+]1=O    185 nM

For record O=c1c2[nH]ccc2nc2n1CCS2 the listed GI50 is > 100000 nM

For record c1ccc(-c2cccc(-c3ccccn3)n2)nc1 the listed GI50 is 37.3 nM

For record COc1ccc(-c2cn(-c3cccc(C(=O)/C=C/c4cc(OC)c(OC)c(OC)c4)c3)c(=O)[nH]2)cc1 the listed GI50 is 1910 nM
